endpoint name: melting point

Sample records with melting point:
NCCCNc1ccc(Cl)nn1; 125 °C
CNC(=O)c1cc2nc(C)c(C)nc2c(Cl)c1NC(=O)c1cc(C(F)(F)F)nn1-c1ncccc1Cl; 221 to 224 °C
Nc1nc2cc(-c3cccc(C(=O)N4CCCC4)c3)ccc2c2c1nc(CO)n2CC1CCOCC1; 281 to 284 °C
CCCCc1nc2cc3ccccc3cc2[nH]1; 190 °C
c1ccc(-c2nn3c(c2-c2ccnc4cc(OCCN5CCOCC5)ccc24)CCCCC3)nc1; 157 to 159 °C

# per-item lookup of melting point; items listed below
1. CC(C)N1C(CO)=Cc2ccsc2S1(=O)=O
2. O=C1C(CCO)Oc2cc([N+](=O)[O-])ccc2N1Cc1cccc(Cl)c1 (stereo not given)
3. COc1cc(Nc2c(C#N)cnc3cc(-c4csc(CN5CCOCC5)c4)sc23)c(Cl)cc1Cl

67 to 69 °C
100 to 102 °C
209 to 212 °C

# per-item lookup of melting point; items listed below
1. Cc1ccccc1-c1ccn(C(C)(C)C(=O)N(C)C)n1
2. CC(C)c1nc2c(OCc3ccccc3)cc(Br)cc2n1C

1: 78.5 to 81 °C; 2: 132 to 133 °C

* * *

endpoint name: melting point

CN(CCN(C)CCN1C(=O)c2cccc3cc4ccccc4c(c23)C1=O)CCN1C(=O)c2cccc3cc4ccccc4c(c23)C1=O; 255 °C

# per-item lookup of melting point; items listed below
1. O=C(Nc1ccccc1)Nc1cccc(-c2c(-c3ccccc3)cnc3c(C(F)(F)F)cccc23)c1
2. CN(C(=O)CN1C(=O)c2ccccc2S1(=O)=O)c1ccccc1

["202 to 205 °C", "205 to 206 °C"]

# per-item lookup of melting point; items listed below
1. COc1ccnc(-c2sccc2S(C)=O)c1 (stereo not given)
2. COc1ccc(-n2c(C)nc3ccccc32)cc1
3. O=C(c1cc2ccc(F)cc2[nH]1)C12CC3CC(CC(C3)C1)C2
4. O=C(NCc1ccccc1Cl)c1ccc(Br)cc1
5. O=C(NCNC(=O)c1ccccc1C(=O)C1CCCCC1)OCc1ccccc1
6. COc1ccc(-c2noc(C(F)F)c2-c2ccc(S(N)(=O)=O)cc2)cc1F
7. CCCCN1CCSC1c1nsc2ccc(-n3c(=O)cc(C(F)(F)F)n(C)c3=O)cc12 (stereo not given)

1: 103 to 105 °C; 2: 121 to 123 °C; 3: 242 to 244 °C; 4: 133 °C; 5: 152 to 155 °C; 6: 188 to 190 °C; 7: 78 to 82 °C

# per-item lookup of melting point; items listed below
1. CCCCCCCCCCN(O)C(=O)NCC(=O)OCC
2. C=CCNC(=O)C1CCc2cc(Oc3ccccc3)ccc2O1 (stereo not given)

1: 70 to 71 °C; 2: 104 to 106 °C

* * *

Assign melting point to each entry below.

Sample records with melting point:
CNS(=O)(=O)Cc1ccc(NN=CCCC#N)cc1; 124 to 125 °C
COC(CCOS(=O)(=O)c1ccc(C)cc1)CCOS(=O)(=O)c1ccc(C)cc1; 58 °C
N#CC(C#N)=C1Sc2nc3cc([N+](=O)[O-])c([N+](=O)[O-])cc3nc2S1; > 300 °C
CN1C2CCC1CC(O)(c1ccc(Cl)cc1)C2 (stereo unspecified); 186 to 187 °C
COC(=O)c1coc(-c2ncn3c2CN(C)C(=O)c2sccc2-3)n1; 254 to 255 °C

Continue with the compound presented below.
Look up and report measured melting point for this entry: `Oc1c(-c2cccnc2)cccc1-c1cccnc1`
211 °C

* * *

Assign melting point to each entry below.

O=C(c1ccccc1)c1cnn2cccnc12; 174 to 175 °C
Brc1cc(-c2ccncc2)cnc1Br; 150 to 155 °C
NCC(O)CNC(=O)CCCCCCCCCCCO (stereo not given); 119 °C
COc1ccc(-c2cnc(-c3ccc(F)cc3)nc2-c2ccc(OC)cc2)cc1; 129 to 130 °C
Cc1cccc(C)c1NC(=O)c1ccc(C(F)(F)F)cc1; 206 to 207 °C

# per-item lookup of melting point; items listed below
1. CCS(=O)(=O)Nc1cc(-n2ncc(N(C)C)c(Cl)c2=O)c(F)cc1C#N
2. COc1ccc(COc2ccc(CC(=O)O)cc2Cl)cc1
3. CCOC(=O)Cc1ccc(NCc2cc(Br)ccc2OCc2ccccc2)cc1
4. Cc1ccc(C[C@H](N)[C@H](O)c2ccc(F)cc2)cc1OC(F)(F)C(F)F (racemic)
5. Oc1cc2c(cc1O)-c1cc3cc(O)c(O)cc3nc1CC2

206 °C
150 to 152 °C
73 °C
112 to 113 °C
> 220 °C

* * *

Assign melting point to each entry below.

Sample records with melting point:
CCOC(=O)c1ccc(N2CCN(c3ccncc3)CC2)cc1; 162 to 164 °C
C(=Cc1c[nH]cn1)CC(c1ccccc1)c1ccccc1; > 240 °C
COc1cc2cc3c(Nc4ccc(Sc5nccn5C)c(Cl)c4)c(C#N)cnc3cc2cc1OCCn1ccnn1; 201 to 207 °C
O=Cc1c(O)cccc1OCc1ccc(-c2nnn[nH]2)cc1; 206 °C

Continue with the molecule presented below.
Look up and report measured melting point for this entry: Cc1c[nH]c2c1C(=O)CC(c1ccccc1Cl)C2 (stereo not given)
201 to 209 °C

* * *

Assign melting point to each entry below.

Oc1ccc(CNc2n[nH]c3ncnc(Nc4cccc(Cl)c4)c23)cc1Cl; 220 °C
CCC1(C)CC(C)(C)c2cc(O)ccc21 (stereo unspecified); 86 °C
CC(=N)NS(=O)(=O)c1cc(I)cc(C#N)c1; 177 to 178 °C
CCC1C(=O)c2c(cc(O)c(Cl)c2Cl)C1c1ccccc1 (stereo unspecified); 220 to 222 °C
CC(=O)NCC1CCCc2cc(NS(=O)(=O)c3cccc(F)c3)ccc21 (stereo unspecified); 136 to 137 °C
O=C(C1CC=CCC1)N1c2ccccc2CCC1CN1CCN(c2cccc3[nH]ccc23)CC1 (stereo unspecified); 156 to 160 °C

# per-item lookup of melting point; items listed below
1. CC1Cc2ccccc2CN(CO)C1=O (stereo unspecified)
2. COCC1=C(C(=O)OC)C(c2ccccc2Cl)C(C(=O)OC)=C(COC)N1
3. CN1C(=O)C(c2ccncc2)(c2cccc(-c3cc(F)ccc3F)c2)N=C1N (stereo unspecified)

1: 114 to 116 °C; 2: 137 to 138 °C; 3: 200 to 202 °C

# per-item lookup of melting point; items listed below
1. Oc1ccc(Cl)cc1CCc1ccccn1
2. CNc1nn2c(N)nnc2c2c1CCCC2

1. 135 to 137 °C
2. 295 to 297 °C

* * *

endpoint name: melting point

Sample records with melting point:
COc1cc2nc(N3CCN(c4ccc(Cl)nn4)CC3)nc(N)c2cc1OC; 269 to 270 °C
COc1ccc(-c2ccnc3[nH]c4ccccc4c23)cc1; 208 to 210 °C
CCOC(=O)c1c2n(c3cc(Cl)c(F)cc3c1=O)C(COC1CCCCO1)CS2 (configuration not stated); 183 to 186 °C
CC(C)n1nc(-c2nc(Sc3ccc(F)cc3)c(N)nc2-c2ccccc2)ccc1=O; 148 to 150 °C
Cc1cc(C)c2[nH]c(=O)c(O)cc(=O)c2c1; 211 to 213 °C

# per-item lookup of melting point; items listed below
1. OC1(c2ccc(C(F)(F)F)cc2)CCNCC1
2. O=C1C=C2C=CC=C2O1
3. OC1CSC(Oc2ccc(-c3cncnc3)nc2)C(O)C1O (configuration not stated)
4. CSc1csc(NC(=O)c2ccc(OC(C)=O)cc2)n1
5. O=C(O)c1nc2ccc(O)cc2[nH]1
6. CN(C)N=C(O)c1cc(C(=N)O)c(C(=O)O)cc1C(=O)O
7. COc1cc2c(=O)n(Cc3ccc([N+](=O)[O-])cc3)c3cc(OC)c(OC)cc3c2cc1OC
8. O=[N+]([O-])c1cc(-c2ccoc2)ccc1Nc1cc(-n2ccnc2)ncn1

["130 to 132 °C", "81 to 83 °C", "188 °C", "186 to 189 °C", "206 to 207 °C", "293 to 295 °C", "199 to 200 °C", "198 to 200 °C"]

* * *

Assign melting point to each entry below.

# per-item lookup of melting point; items listed below
1. C[C@H](NC(=O)[C@H](Cc1ccccc1)NC(=O)OCc1ccccc1)C(=O)O
2. CCON=C(C)c1ccc2c(c1)ncn2-c1cccc(-c2cccnc2)c1

1: 160 to 164 °C; 2: 105 to 106 °C

* * *

Assign melting point to each entry below.
Answers are plain numbers, in °C.

Sample records with melting point:
COc1ccc(-c2nc3ncccc3[nH]2)c2cc(C(C)C)oc12; 242
Cc1ccccc1NC(=O)Nc1ccc(NC(=O)C(CC(=O)Nc2ccc(C(=O)O)cc2)c2ccccc2)cc1 (stereo unspecified); 169
COc1cc(C)ccc1S(=O)(=O)OCC(=O)c1ccccc1; 89

# per-item lookup of melting point; items listed below
1. C#CCOc1cc(Oc2ccc(OC)cc2)ncn1
2. CC(=O)OC1CSC(Oc2ccc(-c3cnoc3C)nc2)C(OC(C)=O)C1OC(C)=O (stereo unspecified)

1. 72
2. 165
